The values you see were collected from PubChem BioAssay (EPA / NIEHS).

read-out: Vascular cell adhesion molecule 1 (VCAM1), VCAM1 (gene 7412); experiment: BSK_LPS_VCAM1: BioMAP Diversity Plus: LPS Assay for Vascular cell adhesion molecule 1 (VCAM1) Biomarker Activity (AID 2283086); conditions: primary human HUVEC with PBMC; actives raise or lower the signal
Active and inactive are the calls of the source. Rule for the calls: active = hit-call score of the fitted dose curve at least 0.9, where 1 is the maximum; inactive = score below 0.9.
experimental.endpoint: AC50

Below: 4 compounds and their reported AC50.
[
  {
    "compound": "N#CCCC(Br)(C#N)CBr (stereo not given)",
    "AC50": "9.05 µM (active)"
  },
  {
    "compound": "C[C@]12CC[C@@H](O)C[C@@H]1CC[C@@H]1[C@@H]2CC[C@]2(C)C(=O)CC[C@@H]12",
    "AC50": "inactive"
  },
  {
    "compound": "Cc1ccc2nc3sc(=O)sc3nc2c1",
    "AC50": "7.61 µM (active)"
  },
  {
    "compound": "O=[N+]([O-])c1cccc2ccccc12",
    "AC50": "inactive"
  }
]

Exercise: Quick one: AC50 of C#CCOC(=O)/C=C(C)/C=C/CC(C)CCCC(C)C (stereo not given) ?
Key: inactive

Exercise: Proceed to `O=[N+]([O-])c1ccc(Nc2ccccc2)cc1`
Key: inactive

Exercise: Proceed to `CCCCN(CCCC)C(=S)[S-].CCCCN(CCCC)C(=S)[S-].[Ni+2]`
Key: inactive

Exercise: Proceed to `Oc1cc(Cl)c(Cl)cc1Cl`
Key: 32 µM (active)

Exercise: Proceed to `Clc1cccc(Cl)c1`
Key: inactive

Exercise: Proceed to `CC(C)N(C(=O)CCl)c1ccccc1`
Key: 18 µM (active)

###

read-out: Monocyte Chemoattractant Protein-1 (MCP1), CCL2 (gene 6347); test: BSK_CASM3C_MCP1: BioMAP Diversity Plus: CASM3C Assay for Monocyte Chemoattractant Protein-1 (MCP1) Biomarker Activity (AID 2283046); conditions: primary human coronary artery smooth muscle cells; actives raise or lower the signal;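 note: MCP-1 level quantified by ELISA 24 h after dosing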
The source made the active and inactive calls. How the source made its calls: active means hit-call score of the fitted dose curve at least 0.9, where 1 is the maximum; inactive means score below 0.9.
Can you answer with just one of these options? true for active, false for inactive

Past entries and their recorded results:
[
  {
    "compound": "CC(C)=CC1C(C(=O)OCc2cccc(Oc3ccccc3)c2)C1(C)C (configuration not stated)",
    "assigned.category": "false"
  },
  {
    "compound": "O=S(=O)(c1ccc(Cl)cc1)c1cc(Cl)c(Cl)cc1Cl",
    "assigned.category": "false"
  },
  {
    "compound": "CN(C)C(=S)S",
    "assigned.category": "false"
  },
  {
    "compound": "CCCCOC(=O)COC(=O)c1ccccc1C(=O)OCCCC",
    "assigned.category": "false"
  },
  {
    "compound": "CC1(C)[C@H](C(=O)O[C@H](C#N)c2cccc(Oc3ccccc3)c2)[C@@H]1/C=C(\\Cl)C(F)(F)F",
    "assigned.category": "false"
  }
]

Exercise: Recorded test call requested for `O=S(=O)(C(Cl)(Cl)Cl)C(Cl)(Cl)Cl`
Key: true

Exercise: Proceed to `Clc1cccc(Cl)c1`
Key: false

###

read-out: urokinase plasminogen activator (uPA), PLAU (gene 5328); test: BSK_BE3C_uPA: BioMAP Diversity Plus: BE3C Assay for urokinase plasminogen activator (uPA) Biomarker Activity (AID 2283038); conditions: primary human bronchial epithelial cells; actives raise or lower the signal
Active and inactive are the calls of the source. The calls were made as follows: active = hit-call score of the fitted dose curve at least 0.9, where 1 is the maximum; inactive = score below 0.9.
Can you answer with just one of these options? class 1 (active), class 0 (inactive)

Past entries and their recorded results:
[
  {
    "compound": "Cc1c([N+](=O)[O-])c(C)c([N+](=O)[O-])c(C(C)(C)C)c1[N+](=O)[O-]",
    "assigned.category": "class 0"
  },
  {
    "compound": "CCOP(=S)(OCC)OP(=S)(OCC)OCC",
    "assigned.category": "class 0"
  },
  {
    "compound": "OC(Cc1ccccc1Cl)(Cn1[nH]cnc1=S)C1(Cl)CC1 (configuration not stated)",
    "assigned.category": "class 1"
  }
]

Exercise: Recorded test call requested for `CCOP(=O)(OCC)SCCSCC`
Key: class 0

Exercise: Proceed to N#CCCC(Br)(C#N)CBr (configuration not stated)
Key: class 1

Exercise: Proceed to O=c1oc2ccccc2c(O)c1C(CC(O)c1ccc(-c2ccc(Br)cc2)cc1)c1ccccc1 (configuration not stated)
Key: class 1

Exercise: Proceed to `CCOC(=O)CCN(SN(C)C(=O)Oc1cccc2c1OC(C)(C)C2)C(C)C`
Key: class 0

Exercise: Proceed to `Clc1cccc(Cl)c1Cl`
Key: class 0

Exercise: Proceed to `CCOP(=S)(OCC)SCS(=O)(=O)C(C)(C)C`
Key: class 0

Exercise: Proceed to `O=[N+]([O-])c1cccc2ccccc12`
Key: class 0

Exercise: Proceed to CCC(C)(C#N)N=NC(C)(C#N)CC (configuration not stated)
Key: class 0

Exercise: Proceed to `Cc1ccccc1OP(=O)(Oc1ccccc1)Oc1ccccc1`
Key: class 0

Exercise: Proceed to `O=[N+]([O-])c1ccc(Nc2ccccc2)cc1`
Key: class 0

Exercise: Proceed to `O=C(Cc1ccccc1)OCCc1ccccc1`
Key: class 0

Exercise: Proceed to `c1ccc2sc(SNC3CCCCC3)nc2c1`
Key: class 0

Exercise: Proceed to CC(C=O)Cc1ccc2c(c1)OCO2 (configuration not stated)
Key: class 0

Exercise: Proceed to `Nc1c(Oc2ccccc2)cc(O)c2c1C(=O)c1ccccc1C2=O`
Key: class 0

Exercise: Proceed to `COc1ccccc1N`
Key: class 0

Exercise: Proceed to `Clc1cccc(Cl)c1`
Key: class 0

Exercise: Proceed to `O=C(O)C1(c2ccc3c(c2)OC[C@H](Cc2ccc(-c4ccccc4)cc2)[C@H]3O)CCCC1`
Key: class 1

Exercise: Proceed to `Cc1cc(C(C)(C)c2ccc(O)c(C)c2)ccc1O`
Key: class 0

Exercise: Proceed to `Nc1ccc(N)cc1`
Key: class 0

Exercise: Proceed to `O=C1C=CC(=O)c2ccccc21`
Key: class 1

###

read-out: Cytochrome P450 3A4 (Homo sapiens); assay: LTEA_HepaRG_CYP3A4: Life Technologies and Expression Analysis (LTEA) Assay for CYP3A4 using HepaRG (AID 2283487); settings: mRNA level, 48 h; actives raise or lower the signal
Activity calls are given as the source filed them. How the source made its calls: active means hit-call score of the fitted dose curve at least 0.9, where 1 is the maximum; inactive means score below 0.9.
Can you answer with just one of these options? 1.0 = active, 0.0 = inactive

[
  {
    "mol": "CC(C)O.CC(C)O.OCCN(CCO)CCO.OCCN(CCO)CCO.[Ti]",
    "assigned.category": 0.0
  },
  {
    "mol": "Cc1cc(C)cc(C)c1",
    "assigned.category": 0.0
  },
  {
    "mol": "O=C(O)C1(c2ccc3c(c2)OC[C@H](Cc2ccc(-c4ccccc4)cc2)[C@H]3O)CCCC1",
    "assigned.category": 1.0
  },
  {
    "mol": "CCCCCCCCCCCCc1cccc(S(=O)(=O)O)c1",
    "assigned.category": 1.0
  }
]

Exercise: Recorded test call requested for `N#Cc1cccnc1`
Key: 0.0

Exercise: Proceed to `Clc1cccc(Cl)c1`
Key: 0.0

Exercise: Proceed to `COc1ccccc1N`
Key: 0.0

###

Target: human Vascular Endothelial Growth Factor Receptor 2 (VEGFR2), KDR (gene 3791)
Experiment: NVS_ENZ_hVEGFR2: NovaScreen (NVS) Enzymatic Assay for human Vascular Endothelial Growth Factor Receptor 2 (VEGFR2) (AID 2283230)
Experimental: NVS_ENZ_hVEGFR2 is a biochemical, single-readout assay that uses extracted gene-proteins in a cell-free assay. Measurements were taken 1 hour after chemical dosing in a 384-well plate.NVS_ENZ_hVEGFR2 is one of one assay component(s) measured or calculated from the NVS_ENZ_hVEGFR2 assay. […] This assay endpoint, NVS_ENZ_hVEGFR2, was analyzed in the positive analysis fitting direction relative to DMSO as the negative control and baseline of activity. […]
Inconclusive results are not listed. Calls of active or inactive are those of the source. The calls were made as follows: active = hit-call score of the fitted dose curve at least 0.9, where 1 is the maximum; inconclusive = response in the unintended direction; inactive = score below 0.9.
Can you answer with just one of these options? yes (1) for active, no (0) for inactive

Past entries and their recorded results:
[
  {
    "mol": "Oc1cc(Cl)c(Cl)cc1Cl",
    "test.target": "human Vascular Endothelial Growth Factor Receptor 2 (VEGFR2), KDR (gene 3791)",
    "assigned.category": "no (0)"
  },
  {
    "mol": "N#Cc1cccnc1",
    "test.target": "human Vascular Endothelial Growth Factor Receptor 2 (VEGFR2), KDR (gene 3791)",
    "assigned.category": "no (0)"
  }
]

Exercise: Recorded test call requested for `CCCCCCCCCCCCc1cccc(S(=O)(=O)O)c1`
Key: yes (1)

Exercise: Proceed to `CC(C)O.CC(C)O.OCCN(CCO)CCO.OCCN(CCO)CCO.[Ti]`
Key: yes (1)
